Tested on: weeds and/or crops
Assay: Post-emergence biological efficacy (Table 4)
Assay type: in vivo
Settings: 312 h, ZEAMX, 1000 g/ha, evaluated after 13 days, read-out: damage to plant ZEAMX (100=total damage; 0=no damage)
# if value of pest or weed control at 1000 g/ha reaches 10%, tag fulfilled; if it stays below, tag not fulfilled

smiles.text	test.system	category.label
Nc1c(Cl)cc(Cl)c(Cl)c1C(F)(F)C(=O)O	weeds and/or crops	not fulfilled
COc1c(Cl)ccc(F)c1C(F)(F)C(=O)O	weeds and/or crops	fulfilled
O=C(O)C(F)(F)c1c(Cl)ccc2cccnc12	weeds and/or crops	not fulfilled

q: Is the recorded value of pest or weed control at 1000 g/ha equal to or greater than 10% for this molecule? `Cc1c(C#N)cccc1C(F)(F)C(=O)O`
a: fulfilled

---

Tested on: weeds and/or crops
Assay: Post-emergence biological efficacy (Table 4)
Assay type: in vivo
Details: Amaranthus retroflexus, 312 h, AMARE, 1000 g/ha, evaluated after 13 days, read-out: damage to plant AMARE (100=total damage; 0=no damage)
recorded.metric: pest or weed control at 1000 g/ha
Your reply should be a number followed by the unit it is expressed in.

The examples below pair each entry with its known result.
smiles.text	pest or weed control at 1000 g/ha
O=C(O)C(F)(F)c1cc(Cl)cc([N+](=O)[O-])c1Cl	30%
O=C(O)C(F)(F)c1cccc2ccccc12	70%
O=C(O)C(F)(F)c1c(Cl)ccc2cccnc12	70%
COc1cccc(C(F)(F)C(=O)O)c1C	80%

Please state pest or weed control at 1000 g/ha for every compound in the list that follows.
1. CSc1c(Cl)cccc1C(F)(F)C(=O)O
2. Cc1noc2cccc(C(F)(F)C(=O)O)c12
3. Nc1c(Cl)ccc(Cl)c1C(F)(F)C(=O)O
4. O=C(O)C(F)(F)c1cc(-c2ccc(F)cc2)cc(Cl)c1Cl

a:
["40%", "70%", "50%", "50%"]

q: What value of pest or weed control at 1000 g/ha has been reported for the following compound? `O=C(O)C(F)(F)c1c(Cl)ccc2cc(Cl)cnc12`
a: 50%

---

Test system: IPOHE
Assay: Pre-emergence biological efficacy (Table 3)
Type: in vivo
Conditions: Ipomoea hederacea, 312 h, 1000 g/ha, after 13 days, read-out: evaluation (100=total damage to plant; 0=no damage to plant)
Answer each item with its documented pest or weed control at 1000 g/ha.
Numbers only, in %.

The examples below pair each entry with its known result.
smiles.text	unit.text	reading
O=C(O)C(F)(F)c1cccc(Cl)c1C1CC1	%	80
C=Cc1cccc(C(F)(F)C(=O)O)c1Cl	%	90
O=C(O)C(F)(F)c1c(Cl)ccc2cccnc12	%	60
COc1c(F)ccc(F)c1C(F)(F)C(=O)O	%	0
COc1cccc(C(F)(F)C(=O)O)c1Cl	%	80

Please state pest or weed control at 1000 g/ha for every compound in the list that follows.
1. O=C(O)C(F)(F)c1cc(Cl)c(Cl)cc1O
2. COC(=O)C(F)(F)c1c(Cl)ccc(Cl)c1OC
3. COc1ccc(C(F)(F)C(=O)O)c([N+](=O)[O-])c1F
4. Cc1ccc2onc(C)c2c1C(F)(F)C(=O)O

a:
1. 0
2. 40
3. 20
4. 0

---

System: STEME
Assay: Pre-emergence biological efficacy (Table 3)
Format: in vivo
Conditions: 312 h, after 13 days, read-out: evaluation (100=total damage to plant; 0=no damage to plant)
Answer each item with its documented pest or weed control at 1000 g/ha.

smiles.text	reading
COc1ccc(Cl)c(C(F)(F)C(=O)O)c1	80%
Cc1noc2ccc(Cl)c(C(F)(F)C(=O)O)c12	10%
O=C(O)C(F)(F)c1c(Cl)ccc2ccccc12	80%

Please state pest or weed control at 1000 g/ha for every compound in the list that follows.
1. C=Cc1cccc(C(F)(F)C(=O)O)c1Cl
2. CSc1c(C(F)(F)C(=O)O)ccc(Br)c1Cl
3. Cc1ccc2onc(C)c2c1C(F)(F)C(=O)O
4. O=C(O)C(F)(F)c1cccc([N+](=O)[O-])c1Cl
5. O=C(O)C(F)(F)c1cc(-c2ccc(F)cc2)cc(Cl)c1Cl
6. Nc1c(Cl)cccc1C(F)(F)C(=O)O
7. O=C(O)C(F)(F)c1cc(-c2ccc(F)cc2)ccc1Cl
8. C#Cc1cccc(C(F)(F)C(=O)O)c1Cl

a:
["90%", "0%", "0%", "0%", "0%", "10%", "0%", "100%"]

---

Test system: AMARE
Assay: Biological efficacy, post-emergence glasshouse test (Table 2)
Format: in vivo
Conditions: 1000 g/ha, after 12 days
recorded.metric: score (100=total damage to plant, 0=no damage to plant)
One number for each entry.

The examples below pair each entry with its known result.
smiles.text	reading
O=C(O)C(F)(F)c1cccc2ccccc12	70
COc1ccc(C(F)(F)C(=O)O)cc1	40
CCc1ccccc1C(F)(F)C(=O)O	50

Please state score (100=total damage to plant, 0=no damage to plant) for every molecule in the list that follows.
1. CCOC(=O)C(F)(F)c1cccc2cccc(C(F)(F)C(=O)OCC)c12
2. COc1cccc(C(F)(F)C(=O)O)c1

a:
[80, 80]

Please state score (100=total damage to plant, 0=no damage to plant) for every molecule in the list that follows.
1. COc1cc(F)c(C(F)(F)C(=O)O)cc1Cl.N
2. C#Cc1c(Cl)cccc1C(F)(F)C(=O)O

a:
1. 100
2. 100

---

Answer each item with its documented pest or weed control at 1000 g/ha.
Tested on: weeds and/or crops
Test: Post-emergence biological efficacy (Table 4)
Assay type: in vivo
Conditions: 312 h, ZEAMX, 1000 g/ha, evaluated after 13 days, read-out: damage to plant ZEAMX (100=total damage; 0=no damage)
Give bare numbers, in %.

The examples below pair each entry with its known result.
molecule	pest or weed control at 1000 g/ha (%)
Nc1c(Cl)ccc(Cl)c1C(F)(F)C(=O)O	20
O=C(O)C(F)(F)c1cccc2c1OC(F)(F)O2	40
O=C(O)C(F)(F)c1cc(Cl)c(Cl)cc1O	20
O=C(O)C(F)(F)c1cccc2nccnc12	10
COc1c(F)cccc1C(F)(F)C(=O)O	10

Please state pest or weed control at 1000 g/ha for every molecule in the list that follows.
1. O=C(O)C(F)(F)c1cccc(Cl)c1OC(F)F
2. O=C(O)C(F)(F)c1cccc(Cl)c1[N+](=O)[O-]
3. COc1c(Cl)cc(Cl)c(Cl)c1C(F)(F)C(=O)O
4. O=C(O)C(F)(F)c1cccc(OC(F)F)c1Cl
5. O=C(O)C(F)(F)c1cccc2c1CCO2
6. CCOC(=O)C(F)(F)c1c(F)ccc(F)c1O

a:
[40, 20, 20, 20, 10, 20]

Please state pest or weed control at 1000 g/ha for every molecule in the list that follows.
1. C=Cc1cccc(C(F)(F)C(=O)O)c1Cl
2. O=C(O)C(F)(F)c1cc(O)ccc1Cl
3. CCOC(=O)C(F)(F)c1cccc2ccccc12 [Compound 3-397, Ethyl 2,2-difluoro-2-(1-naphthyl)acetate]
4. COc1c(F)ccc(C(F)(F)C(=O)O)c1F
5. N#Cc1c(Cl)cccc1C(F)(F)C(=O)O
6. Cc1noc2ccc(Cl)c(C(F)(F)C(=O)O)c12
7. Nc1ccc(Cl)c(C(F)(F)C(=O)O)c1
8. Cc1cccc(C(F)(F)C(=O)O)c1C#N

a:
1. 30
2. 10
3. 0
4. 40
5. 20
6. 0
7. 0
8. 10

Please state pest or weed control at 1000 g/ha for every molecule in the list that follows.
1. COC(=O)c1c(Cl)cccc1C(F)(F)C(=O)O
2. O=C(O)C(F)(F)c1c(Cl)ccc2c1OC(F)(F)O2

a:
[10, 0]

---

Test system: weeds and/or crops
Assay: Post-emergence biological efficacy (Table 4)
Type: in vivo
Conditions: Abutilon theophrasti, 312 h, ABUTH, 1000 g/ha, evaluated after 13 days, read-out: damage to plant ABUTH (100=total damage; 0=no damage)
recorded.metric: pest or weed control at 1000 g/ha (%)
One number for each entry, in %.

The examples below pair each entry with its known result.
molecule	recorded.metric	unit.text	reading
Nc1c(Cl)cc(Cl)cc1C(F)(F)C(=O)O	pest or weed control at 1000 g/ha	%	40
COc1ccc(Cl)c(C(F)(F)C(=O)O)c1	pest or weed control at 1000 g/ha	%	20
Nc1ccc(Cl)c(C(F)(F)C(=O)O)c1	pest or weed control at 1000 g/ha	%	10

Please state pest or weed control at 1000 g/ha for every molecule in the list that follows.
1. CCOC(=O)C(F)(F)c1cccc2cccc(C(F)(F)C(=O)OCC)c12
2. COc1c(Cl)ccc(F)c1C(F)(F)C(=O)O
3. CCc1cccc(C(F)(F)C(=O)O)c1Cl
4. O=C(O)C(F)(F)c1c(Cl)ccc2ccccc12
5. O=C(O)C(F)(F)c1cc(-c2ccc(F)cc2)cc(Cl)c1Cl
6. CCOC(=O)C(F)(F)c1cccc2ccccc12 [Compound 3-397, Ethyl 2,2-difluoro-2-(1-naphthyl)acetate]

a:
[80, 50, 80, 80, 10, 90]

Please state pest or weed control at 1000 g/ha for every molecule in the list that follows.
1. O=C(O)C(F)(F)c1cc(Cl)c(Cl)cc1O
2. CSc1c(Cl)cccc1C(F)(F)C(=O)O
3. Nc1ccc(Cl)c(C(F)(F)C(=O)O)c1Cl

a:
1: 10; 2: 60; 3: 0

Please state pest or weed control at 1000 g/ha for every molecule in the list that follows.
1. CSc1c(C(F)(F)C(=O)O)ccc(Br)c1Cl
2. Cc1noc2ccc(Cl)c(C(F)(F)C(=O)O)c12
3. Nc1c(Cl)ccc(Cl)c1C(F)(F)C(=O)O
4. O=C(O)C(F)(F)c1c(Cl)cccc1[N+](=O)[O-]
5. Nc1c(Cl)cc(Cl)c(Cl)c1C(F)(F)C(=O)O
6. O=C(O)C(F)(F)c1cccc2c1OC(F)(F)O2
7. O=C(O)C(F)(F)c1cc(O)ccc1Cl

a:
10
20
30
10
20
90
10

q: What value of pest or weed control at 1000 g/ha has been reported for the following molecule? `O=C(O)C(F)(F)c1cc(-c2ccc(F)cc2)ccc1Cl`
a: 0
